// provenance: patent US9096591B2

Molecular target: human recombinant adrenergic α2A receptor (Homo sapiens)
Construct: expressed in transfected cells; host or cells: insect Sf9 cells
Sequence (P08913 whole entry): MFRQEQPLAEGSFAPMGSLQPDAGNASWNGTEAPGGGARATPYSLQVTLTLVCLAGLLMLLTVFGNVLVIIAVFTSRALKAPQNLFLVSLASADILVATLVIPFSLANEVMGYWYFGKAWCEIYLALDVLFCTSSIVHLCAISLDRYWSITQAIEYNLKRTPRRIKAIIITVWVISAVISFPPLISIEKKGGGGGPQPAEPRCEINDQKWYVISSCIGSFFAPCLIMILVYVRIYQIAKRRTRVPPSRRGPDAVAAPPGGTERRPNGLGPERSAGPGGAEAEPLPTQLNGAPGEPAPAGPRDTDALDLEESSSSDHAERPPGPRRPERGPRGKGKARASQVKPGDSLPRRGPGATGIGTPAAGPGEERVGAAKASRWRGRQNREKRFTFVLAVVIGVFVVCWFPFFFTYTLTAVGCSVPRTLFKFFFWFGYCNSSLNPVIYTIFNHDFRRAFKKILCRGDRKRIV
Assay: Adrenergic α2A radioligand binding ([3H]MK-912)
Design: concentration or dose not given beside the values
Details: percent inhibition of specific binding
# label = fulfilled if Inhibition of ligand binding, Adren. alpha2A >= 90% else not fulfilled

Here are 4 molecules together with their reported answers.
- OC1CCC(N2CCc3c(c4cc(Cl)ccc4n3CCc3ccc(C(F)(F)F)nc3)C2)C1 (stereo not shown) [Compound 351]: not fulfilled
- Cc1ccc2c(c1)c1c(n2CCc2ccc(C)nc2)CC(=O)N(C)C1 [Compound 195]: not fulfilled
- CCN1CCc2c(c3cc(C)ccc3n2Cc2ccc(C)nc2)C1 [Compound 138]: not fulfilled
- Cc1ccc2c(c1)c1c(n2CCC(=O)N2CCC(NC(=O)OC(C)(C)C)CC2)CCN(C)C1 [Compound 393]: fulfilled

Say whether CC(Cn1c2c(c3ccccc31)CN(C)CC2)c1ccc(F)cc1 (stereo not shown) [Compound 455] shows Inhibition of ligand binding, Adren. alpha2A of 90% or more.
fulfilled

Say whether Cc1ccc2c(c1)c1c(n2CC(=O)N2CCSCC2)CCN(C)C1 [Compound 399] shows Inhibition of ligand binding, Adren. alpha2A of 90% or more.
not fulfilled

Say whether CN1CCc2c(c3cc(C(F)(F)F)ccc3n2CCc2ccccc2)C1 [Compound 80] shows Inhibition of ligand binding, Adren. alpha2A of 90% or more.
fulfilled

Say whether Cc1ccc2c(c1)c1c(n2Cc2ccccc2)CCN(C)C1 [Compound 137] shows Inhibition of ligand binding, Adren. alpha2A of 90% or more.
not fulfilled

###

Biological target: human recombinant adrenergic α2B receptor (Homo sapiens)
Construct: expressed in transfected cells; host or cells: CHO-K1 cells
Sequence (P18089 1-450): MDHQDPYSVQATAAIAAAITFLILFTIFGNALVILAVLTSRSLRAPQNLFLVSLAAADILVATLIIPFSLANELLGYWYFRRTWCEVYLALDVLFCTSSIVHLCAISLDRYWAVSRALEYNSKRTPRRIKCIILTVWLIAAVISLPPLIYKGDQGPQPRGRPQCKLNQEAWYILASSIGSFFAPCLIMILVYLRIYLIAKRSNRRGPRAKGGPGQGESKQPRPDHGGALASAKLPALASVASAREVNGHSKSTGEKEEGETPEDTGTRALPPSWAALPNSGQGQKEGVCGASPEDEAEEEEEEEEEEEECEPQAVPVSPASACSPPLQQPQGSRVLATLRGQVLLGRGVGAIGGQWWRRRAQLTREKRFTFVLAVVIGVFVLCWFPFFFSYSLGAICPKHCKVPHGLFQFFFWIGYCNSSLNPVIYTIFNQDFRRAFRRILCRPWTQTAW
Assay: Adrenergic α2B radioligand binding ([3H]Rauwolscine)
Design: concentration or dose not given beside the values
Settings: percent inhibition of specific binding
Protocol: To evaluate in radioligand binding assays the activity of compounds of the invention, human recombinant adrenergic α2B receptor expressed in Chinese hamster ovary (CHO-K1) cells (Uhlen S et al. Eur J. Pharmacol. 343(1):93, 1998) in a modified Tris-HCl buffer (50 mM Tris-HCl, pH 7.4, 12.5 mM MgCl2, 1 mM EDTA, 0.2% BSA) was used. […] Receptor proteins were filtered and washed, the filters were then counted to determine [^3H]Rauwolscine specifically bound. […]
Property: Inhibition of ligand binding, Adren. alpha2B

- Cc1ccc2c(c1)c1c(n2CC(=O)N2CCN(C)CC2)CCN(C)C1: −20%

Kindly state the measured Inhibition of ligand binding, Adren. alpha2B obtained for Cc1ccc2c(c1)c1c(n2CC(=O)N2Cc3ccccc3C2)CCN(C)C1 with human recombinant adrenergic α2B receptor (Homo sapiens).
40%

Kindly state the measured Inhibition of ligand binding, Adren. alpha2B obtained for Cc1ccc2c(c1)c1c(n2CCc2cccnc2)CCN(C)C1 with human recombinant adrenergic α2B receptor (Homo sapiens).
95%

Kindly state the measured Inhibition of ligand binding, Adren. alpha2B obtained for Cc1ccc2c(c1)c1c(n2CCC2CCCCC2)CCN(C)C1 with human recombinant adrenergic α2B receptor (Homo sapiens).
104%

Kindly state the measured Inhibition of ligand binding, Adren. alpha2B obtained for CN1CCc2c(c3ccc(Cl)cc3n2CCc2ccccc2)C1 with human recombinant adrenergic α2B receptor (Homo sapiens).
99%
